Reported Rat Paw Thickness values follow for various molecules
Tested on: carrageenan-induced rat paw edema
Measurement protocol: Carrageenan-induced rat paw edema model
Assay type: in vivo
Condition label: 5.0 mg/kg, 1 h after carrageenan; mean ± SD

[
  {
    "Compound string": "COc1ccc2cc([C@H](C)C(=O)NC(=S)Nc3ccccc3OC)ccc2c1",
    "Unit of measure": "mm",
    "Rat Paw Thickness": 6.97
  },
  {
    "Compound string": "COC(=O)[C@H](Cc1c[nH]c2ccccc12)NC(=S)NC(=O)[C@@H](C)c1ccc2cc(OC)ccc2c1",
    "Unit of measure": "mm",
    "Rat Paw Thickness": 6.77
  },
  {
    "Compound string": "COC(=O)[C@H](Cc1ccccc1)NC(=S)NC(=O)[C@@H](C)c1ccc2cc(OC)ccc2c1",
    "Unit of measure": "mm",
    "Rat Paw Thickness": 6.90
  }
]

Attribution: paper PMC10820527
